procedure details: Stability in liver microsome of dogs
Type: in vitro ADME
settings: liver microsomes; Dog liver microsome 0.5 mg protein/mL, compound 1 μM, 37° C.
measure name: half-life at 1 μM (h)

smiles_code=COc1cc2nccc(Oc3ccc(NC(=O)c4nn(C5CC5)cc(-c5ccc(F)cc5)c4=O)cn3)c2cc1OC reported_value=1.93
smiles_code=COc1cc2nccc(Oc3ncc(NC(=O)c4nn(C(C)C)cc(-c5ccc(F)cc5)c4=O)cn3)c2cc1OC reported_value=8.25
smiles_code=COc1cc2nccc(Oc3ccc(NC(=O)c4cn(C(C)C)cc(-c5ccc(C)cc5)c4=O)nc3)c2cc1OC reported_value=0.21
smiles_code=COc1cc2nccc(Oc3ccc(NC(=O)c4nn(C(C)C)cc(-c5ccc(F)cc5)c4=O)cn3)c2cc1OC reported_value=2.18
smiles_code=COc1cc2nccc(Oc3ccc(NC(=O)c4cn(C(C)C)cc(-c5ccc(F)cc5)c4=O)nc3)c2cc1OC reported_value=2.57
smiles_code=COc1cc2nccc(Oc3ccc(NC(=O)c4nn(C(C)C)cc(-c5ccc(F)cc5)c4=O)nc3)c2cc1OC reported_value=3.73
smiles_code=COc1cc2nccc(Oc3cnc(NC(=O)c4cn(C5CC5)cc(-c5ccc(F)cc5)c4=O)nc3)c2cc1OC reported_value=3.5
smiles_code=COc1cc2nccc(Oc3ccc(NC(=O)c4nn(C5CC5)cc(-c5ccc(C)cc5)c4=O)nc3)c2cc1OC reported_value=0.208
smiles_code=COc1cc2nccc(Oc3cnc(NC(=O)c4nn(C(C)C)cc(-c5ccc(F)cc5)c4=O)nc3)c2cc1OC reported_value=8.25
smiles_code=COc1cc2nccc(Oc3cnc(NC(=O)c4cn(C(C)C)cc(-c5ccc(F)cc5)c4=O)nc3)c2cc1OC reported_value=6.08
smiles_code=COc1cc2nccc(Oc3cnc(NC(=O)c4cn(C5CC5)nc(-c5ccc(F)cc5)c4=O)nc3)c2cc1OC reported_value=9.63

* * *

Record set of pIC50 for target or system TrkB (h) (Homo sapiens, UniProt Q16620).
pIC50: −log10 of the molar value.
measure name: pIC50

compound="COc1cc2nccc(Oc3ccc(NC(=O)c4nn(C5CC5)cc(-c5ccc(F)cc5)c4=O)cn3)c2cc1OC [Compound 36]" assayed_target="TrkB (h) (Homo sapiens, UniProt Q16620)" measure_name=pIC50 reported_value=8.40
compound="COc1cc2nccc(Oc3ncc(NC(=O)c4nn(C5CC5)cc(-c5ccc(F)cc5)c4=O)cn3)c2cc1OC [Compound 37]" assayed_target="TrkB (h) (Homo sapiens, UniProt Q16620)" measure_name=pIC50 reported_value=8.22
compound="COc1cc2nccc(Oc3ccc(NC(=O)c4nn(C(C)C)cc(-c5ccc(F)cc5)c4=O)nc3)c2cc1OC [Compound 15]" assayed_target="TrkB (h) (Homo sapiens, UniProt Q16620)" measure_name=pIC50 reported_value=8.52
compound="COc1cc2nccc(Oc3cnc(NC(=O)c4cn(C(C)C)nc(-c5ccc(F)cc5)c4=O)nc3)c2cc1OC [Compound 39]" assayed_target="TrkB (h) (Homo sapiens, UniProt Q16620)" measure_name=pIC50 reported_value=7.77
compound="COc1cc2nccc(Oc3ccc(NC(=O)c4nn(C5CC5)cc(-c5ccc(F)cc5)c4=O)nc3)c2cc1OC [Compound 31]" assayed_target="TrkB (h) (Homo sapiens, UniProt Q16620)" measure_name=pIC50 reported_value=8.52
